Reference source for all entries: ChEMBL document CHEMBL1759843

METHOD_DESCRIPTION: Antioxidant activity assessed as Cu2+ chelating activity at 5 uM
Type: functional
Activity calls are given as the source filed them. The calls are words filed in the database; no cut-off is given here.

# COMPOUND, Activity
records = [
    ("C[C@H](CC[C@H](C)C(C)(C)O)[C@H]1CC[C@H]2[C@@H]3C[C@@H](O)[C@@]4(O)C[C@@H](O)CC[C@]4(C)[C@H]3CC[C@]12C", "inactive"),
    ("C=C1CC/C=C(\\C)CC[C@@H](C2=CC[C@H](C(C)(C)O)OC2)C[C@H]1O", "inactive"),
    ("C=C[C@@]1(C)CC[C@H](C2=CC[C@H](C(C)(C)O)OC2=O)C[C@@H]1C(=C)C [LOBATRIENOLIDE]", "inactive"),
]

* * *

METHOD_DESCRIPTION: Antioxidant activity assessed as Cu2+ chelating activity at 5 uM
Assay type: functional
The source made the active and inactive calls. The calls are words filed in the database; no cut-off is given here.
QUANTITY: Activity

# MOLECULE, QUANTITY, RECORDED_MEASUREMENT
rows = [
    ("CC(=O)OC(C)(C)[C@@H](C)CC[C@@H](C)[C@H]1CC[C@H]2[C@@H]3C[C@@H](O)[C@@]4(O)C[C@@H](O)CC[C@]4(C)[C@H]3CC[C@]12C", "Activity", "inactive"),
    ("C=C1CC/C=C(\\C)CC[C@H](C2=CC[C@H](C(C)(C)O)OC2)C[C@H]1O [LOBOCOMPACTOL A]", "Activity", "inactive"),
    ("C=C[C@@]1(C)CC[C@H](C2=CC[C@H](C(C)(C)O)OC2)C[C@@H]1C(=C)C [LOBATRIENE]", "Activity", "inactive"),
    ("C=C(CC[C@@H](C)[C@H]1CC[C@@H]([C@@H]2CC=C3C[C@@H](O)CC[C@]3(C)C2=O)[C@]1(C)CCO)C(C)C", "Activity", "inactive"),
]

* * *

Test system: A549
METHOD_DESCRIPTION: Cytotoxicity against human A549 cells after 72 hrs
Format: functional, cell-based
RUN_PARAMETERS: A549, 72 h

# COMPOUND, COMPARATIVE_SIGN, IC50, µM
data = [
    ("C=C1CC/C=C(\\C)CC[C@@H](C2=CC[C@H](C(C)(C)O)OC2)C[C@H]1O", ">", 100),
    ("C=C[C@@]1(C)CC[C@H](C2=CC[C@H](C(C)(C)O)OC2=O)C[C@@H]1C(=C)C [LOBATRIENOLIDE]", "=", 23),
    ("C[C@H](CC[C@H](C)C(C)(C)O)[C@H]1CC[C@H]2[C@@H]3C[C@@H](O)[C@@]4(O)C[C@@H](O)CC[C@]4(C)[C@H]3CC[C@]12C", ">", 100),
    ("C=C1CC/C=C(\\C)CC[C@H](C2=CC[C@H](C(C)(C)O)OC2)C[C@H]1O", ">", 100),
    ("CC(=O)OC(C)(C)[C@@H](C)CC[C@@H](C)[C@H]1CC[C@H]2[C@@H]3C[C@@H](O)[C@@]4(O)C[C@@H](O)CC[C@]4(C)[C@H]3CC[C@]12C", "=", 36.5),
    ("O=C1c2c(O)ccc(O)c2C(=O)c2c(NCCNCCO)ccc(NCCNCCO)c21", "=", 7.83),
    ("C=C(CC[C@@H](C)[C@H]1CC[C@@H]([C@@H]2CC=C3C[C@@H](O)CC[C@]3(C)C2=O)[C@]1(C)CCO)C(C)C", "=", 4.97),
    ("C=C[C@@]1(C)CC[C@H](C2=CC[C@H](C(C)(C)O)OC2)C[C@@H]1C(=C)C", "=", 31.1),
]
